Source: PubChem BioAssay (NCATS)

ASSAY_METHOD_TEXT: Cellular Toxicity (caspase-3) Renal Proximal Tubule (AID 667);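 also: cells exposed to compound for 16 hours at 37 °C before detection; 0% = DMSO basal and 100% = 10 µM staurosporine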
EXPERIMENTAL_CONDITIONS: renal proximal tubule cells, primary cells freshly taken from rat; caspase-3 activation; series mostly up to 91.7 µM
The source made the active and inactive calls. Calls follow the shape of the dose curve; as a rule, active = well fitted activation curve with a large enough effect; inconclusive = small, poorly fitted or top-dose-only effect, or effect the other way; inactive = flat fitted curve, though single readings scatter.
REPORTED_METRIC: outcome

[Q] Consider the compound "Nc1ccc(N=Nc2ccccc2)c(N)c1" and give its measured outcome.
[A] inactive

[Q] Consider the compound "O=[N+]([O-])c1cccc(I)c1" and give its measured outcome.
[A] inactive

[Q] Consider the compound "c1ccc(SCCSc2ccccc2)cc1" and give its measured outcome.
[A] inactive

----------
MEASURED_ON: Cytochrome P450 1A2 (Homo sapiens) (UniProt P05177)
Sequence (P05177 whole entry, looked up): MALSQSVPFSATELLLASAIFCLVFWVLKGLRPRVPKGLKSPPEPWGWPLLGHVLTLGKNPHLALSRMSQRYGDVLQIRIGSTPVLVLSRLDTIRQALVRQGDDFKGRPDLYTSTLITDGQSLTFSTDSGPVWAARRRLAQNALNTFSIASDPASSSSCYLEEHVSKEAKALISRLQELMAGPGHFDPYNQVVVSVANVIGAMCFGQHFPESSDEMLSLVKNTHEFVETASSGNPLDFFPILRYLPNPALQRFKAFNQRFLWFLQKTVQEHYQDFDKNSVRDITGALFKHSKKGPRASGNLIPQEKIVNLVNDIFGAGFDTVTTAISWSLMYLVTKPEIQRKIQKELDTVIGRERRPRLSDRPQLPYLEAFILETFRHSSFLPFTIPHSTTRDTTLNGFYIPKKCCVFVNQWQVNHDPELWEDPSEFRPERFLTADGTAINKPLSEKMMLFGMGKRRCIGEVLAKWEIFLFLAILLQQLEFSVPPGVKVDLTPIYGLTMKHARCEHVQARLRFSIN
ASSAY_METHOD_TEXT: p450-cyp1a2 (AID 410)
EXPERIMENTAL_CONDITIONS: recombinant CYP1A2, luciferin-ME demethylation, luminescence; series mostly up to 11.4 µM
Results filed as inconclusive are left out. Calls of active or inactive are those of the source. Calls follow the shape of the full dose curve.
Thanks in advance; please answer with one of these: active, inactive

Example results:
[Q] Hi, do you know how "Oc1c(Br)cc(Br)cc1CN(Cc1cc(Br)cc(Br)c1O)C1CCCCC1" came out in this test?
[A] active

[Q] Hi, do you know how "COc1ccc2cc1Oc1ccc(cc1)C[C@@H]1c3c(cc(OC)c4c3Oc3cc5c(cc3O4)CCN[C@H]5C2)CCN1C" came out in this test?
[A] inactive

[Q] Hi, do you know how "O=c1c(CCc2ccccc2)nc2cnc(Oc3cccc(Cl)c3)nc2n1C[C@H]1CCCO1" came out in this test?
[A] active

Further cases:
[Q] Hi, do you know how "COc1ccc2c(Cl)cc(NC(=S)Nc3ccccc3)nc2c1" came out in this test?
[A] active

[Q] Hi, do you know how "O=C(CSc1nc2ccccc2s1)c1sc2sc3ccccc3[n+]2c1O" came out in this test?
[A] active

[Q] Hi, do you know how "O=C1Nc2ccccc2C1=Nc1cccc2ncccc12" came out in this test?
[A] active

[Q] Hi, do you know how "COCCn1c(=O)c(-c2cc(F)cc(F)c2)nc2cnc(OC)nc21" came out in this test?
[A] active

[Q] Hi, do you know how "O=C(O)CSC1=NCCN1" came out in this test?
[A] inactive

[Q] Hi, do you know how "N.N.N.N.N.N.N.N.N.N.N.N.N.N.O.O.[Ru].[Ru].[Ru]" came out in this test?
[A] inactive

[Q] Hi, do you know how "COCCn1c(=O)c(-c2cccc(C#N)c2)nc2cnc(N3CCNCC3)nc21" came out in this test?
[A] active

[Q] Hi, do you know how "C/C(=N/Nc1ccc2ccccc2n1)c1ccccc1O" came out in this test?
[A] active

----------
Listed here: items and their measured max response.
ASSAY_METHOD_TEXT: qHTS assay for small molecule antagonists of peroxisome proliferator-activated receptor delta signaling (AID 588535);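 also: cells co-treated with a PPAR-delta agonist as stimulator during compound exposure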
EXPERIMENTAL_CONDITIONS: HEK293T PPARd-UAS-bla, beta-lactamase FRET ratio, 18 h; 460 nm channel
Inconclusive results are not listed.
Quick note: give the figure in %, leave out the unit.

Study these solved cases before continuing.
[Q] Consider the molecule "C=Cc1cccc(C)c1" and give its measured max response.
[A] -23.4

[Q] Consider the molecule CCC(Cl)CC(Cl)C(Cl)C(Cl)C(Cl)C(C)Cl (centres undefined) and give its measured max response.
[A] -12

[Q] Consider the molecule "O=C(O)/C=C/c1ccc(/C=C/C(=O)O)cc1" and give its measured max response.
[A] -11.1

Further cases:
[Q] Consider the molecule "OCC(CBr)(CBr)CBr" and give its measured max response.
[A] 9.08

[Q] Consider the molecule "C1CCCNCC1" and give its measured max response.
[A] -36.7

[Q] Consider the molecule "c1c[nH]cn1" and give its measured max response.
[A] 30.3

[Q] Consider the molecule CCCCC(CC)COCCCN (centres undefined) and give its measured max response.
[A] 8.44

----------
ASSAY_METHOD_TEXT: Cell Viability - LYMP1-003 - Assay at 40 hr (AID 964); also: nearly all actives have a fitted effect of over 60% in size
EXPERIMENTAL_CONDITIONS: LYMP1-003 lymphoblastoid viability; series mostly up to 92.2 µM
Results filed as inconclusive are left out. Activity calls are given as the source filed them. Calls follow the shape of the dose curve; as a rule, active = well fitted cell-killing curve with a large enough effect; inconclusive = small, poorly fitted or top-dose-only effect; inactive = flat fitted curve, though single readings scatter.
Thanks in advance; please answer with one of these: True (active), False (inactive)

[Q] Hi, do you know how "OC1CCCCC1" came out in this test?
[A] False

[Q] Hi, do you know how "CCCC(=O)OC(=O)CCC" came out in this test?
[A] False

[Q] Hi, do you know how "Brc1ccc(-c2ccccc2)cc1" came out in this test?
[A] False

[Q] Hi, do you know how "N=C1C=CC(=C(c2ccc(N)cc2)c2ccc(N)cc2)C=C1" came out in this test?
[A] True

[Q] Hi, do you know how "Brc1cc(Br)c(Oc2cc(Br)c(Br)cc2Br)cc1Br" came out in this test?
[A] False

[Q] Hi, do you know how "CC1=C(/C=C/C(C)=C/C=C/C(C)=C/C=O)C(C)(C)CCC1" came out in this test?
[A] True

[Q] Hi, do you know how CCCCCCCCC1CO1 (stereo not drawn) came out in this test?
[A] False

[Q] Hi, do you know how "C/C(Cl)=C/CCl" came out in this test?
[A] False

----------
ASSAY_METHOD_TEXT: Cell Viability - H-4-II-E (AID 543);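 also: cells exposed to compound for 40 hours; nearly all actives have a fitted effect of over 35% in size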
EXPERIMENTAL_CONDITIONS: H-4-II-E rat hepatoma viability; series mostly up to 92.2 µM
Inconclusive results are not listed. Activity calls are given as the source filed them. The call rests on the fitted dose curve; in most records, active means well fitted cell-killing curve with a large enough effect; inconclusive means small, poorly fitted or top-dose-only effect; inactive means flat fitted curve, though single readings scatter.
Thanks in advance; please answer with one of these: active, inactive

Example results:
[Q] Hi, do you know how "Clc1nc2ccccc2nc1Cl" came out in this test?
[A] inactive

[Q] Hi, do you know how "O=[N+]([O-])c1ccccc1Nc1ccccc1" came out in this test?
[A] inactive

[Q] Hi, do you know how C=CC1CO1 (stereo unspecified) came out in this test?
[A] inactive

[Q] Hi, do you know how "COc1ccc([N+](=O)[O-])cc1N" came out in this test?
[A] inactive

[Q] Hi, do you know how "CC(=O)OCc1ccc2c(c1)OCO2" came out in this test?
[A] inactive

[Q] Hi, do you know how "CC/C=C/C/C=C/C/C=C/CCCCCCCC(=O)OCC" came out in this test?
[A] inactive

Further cases:
[Q] Hi, do you know how "O=Nc1ccc(Nc2ccccc2)cc1" came out in this test?
[A] active

[Q] Hi, do you know how CCOC(=O)C1OC1c1ccccc1 (stereo unspecified) came out in this test?
[A] inactive

[Q] Hi, do you know how "O=C=Nc1ccc(Cl)c(Cl)c1" came out in this test?
[A] active

[Q] Hi, do you know how "COc1cc(-c2ccc(N=C=O)c(OC)c2)ccc1N=C=O" came out in this test?
[A] inactive

[Q] Hi, do you know how "O=C(O)c1ccc([N+](=O)[O-])cc1" came out in this test?
[A] inactive

[Q] Hi, do you know how "C=C1CC[C@H](O)C/C1=C/C=C1\CCC[C@]2(C)[C@@H]([C@H](C)CCCC(C)C)CC[C@@H]12" came out in this test?
[A] active

[Q] Hi, do you know how "Cc1c(N)cccc1Cl" came out in this test?
[A] inactive

[Q] Hi, do you know how CC(C)OCC1CO1 (stereo unspecified) came out in this test?
[A] inactive

[Q] Hi, do you know how "Brc1cc(Oc2cc(Br)c(Br)c(Br)c2Br)c(Br)c(Br)c1Br" came out in this test?
[A] inactive

[Q] Hi, do you know how "NC(=O)Nc1nc2ccccc2[nH]1" came out in this test?
[A] inactive

[Q] Hi, do you know how "CCNC(=S)NCC" came out in this test?
[A] inactive

[Q] Hi, do you know how CCCCCCCCC1CO1 (stereo unspecified) came out in this test?
[A] inactive

[Q] Hi, do you know how "CN(C)c1ccc(C(=N)c2ccc(N(C)C)cc2)cc1" came out in this test?
[A] active

[Q] Hi, do you know how "C/C(Cl)=C/CCl" came out in this test?
[A] inactive

[Q] Hi, do you know how "COc1ccc(C)cc1N" came out in this test?
[A] inactive

[Q] Hi, do you know how "c1ccc2ncccc2c1" came out in this test?
[A] inactive

[Q] Hi, do you know how CCC(Cl)CC(Cl)C(Cl)C(Cl)C(Cl)C(C)Cl (stereo unspecified) came out in this test?
[A] inactive

[Q] Hi, do you know how Cc1ccccc1OCC1CO1 (stereo unspecified) came out in this test?
[A] inactive

[Q] Hi, do you know how "C=Cc1cccc(C)c1" came out in this test?
[A] inactive

[Q] Hi, do you know how CCCCC(CC)COCCCN (stereo unspecified) came out in this test?
[A] inactive

[Q] Hi, do you know how "Cc1ccc(N)cc1[N+](=O)[O-]" came out in this test?
[A] inactive

[Q] Hi, do you know how "CCCC(=O)OC(=O)CCC" came out in this test?
[A] inactive

[Q] Hi, do you know how "CC(CCC(=O)O)(c1ccc(O)cc1)c1ccc(O)cc1" came out in this test?
[A] inactive

[Q] Hi, do you know how "Cc1cc(=O)oc2cc(O)cc(O)c12" came out in this test?
[A] inactive

[Q] Hi, do you know how "O=[N+]([O-])c1cccc(I)c1" came out in this test?
[A] inactive
